meta.source: patent US20140086935A1

STUDY_TARGET: rat TIMP-1 (rat, UniProt P30120 24-217)
Sequence (P30120 24-217 limits assumed): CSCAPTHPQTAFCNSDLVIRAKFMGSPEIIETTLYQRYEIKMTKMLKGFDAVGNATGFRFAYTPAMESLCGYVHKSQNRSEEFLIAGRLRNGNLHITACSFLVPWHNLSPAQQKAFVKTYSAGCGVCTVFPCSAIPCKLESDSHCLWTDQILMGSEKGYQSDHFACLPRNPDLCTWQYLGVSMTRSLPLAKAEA
PROCEDURE_DETAILS: SPR (BIAcore), TIMP-1 coupled to chip, monovalent Fab
# key: entry, value: Kd
MEASURED_QUANTITY: Kd

binder="MS-BW-31 (Fab, V domains shown, Fab, FLAG + Strep-tag II; not tied by name) VH: QVQLVQSGAEVKKPGESLKISCKGSGYSFTSYWIGWVRQMPGKGLEWMGIIYPGDSDTRYSPSFQGQVTISADKSISTAYLQWSSLKASDTAMYYCARLYADADIYFDYWGQGTLVTVSS VL: DIALTQPASVSGSPGQSITISCTGTSSDVGGYNYVSWYQQHPGKAPKLMIYDVSNRPSGVSNRFSGSKSGNTASLTISGLQAEDEADYYCQSYDLSPRVFGGGTKLTVLG" measured_quantity=Kd reported="~13 nM"
binder="MS-BW-56 (Fab, V domains shown, Fab, FLAG + Strep-tag II; not tied by name) VH: QVQLVQSGAEVKKPGSSVKVSCKASGGTFSSYAISWVRQAPGQGLEWMGGIIPIFGTANYAQKFQGRVTITADESTSTAYMELSSLRSEDTAVYYCARQEWYMDYWGQGTLVTVSS VL: DIELTQPPSVSVAPGQTARISCSGDALGDKYASWYQQKPGQAPVLVIYDDSDRPSGIPERFSGSNSGNTATLTISGTQAEDEADYYCQSYDRSMWVFGGGTKLTVLG" measured_quantity=Kd reported="~170 nM"
